Decision: logP compared against 2; not below it gives 1 (yes), below it gives 0 (no).

A selection of reference data follows.
- molecule: "CCN=c1nc(Cl)[nH]c(=NC(C)CC)[nH]1 (configuration not stated)"
  class-label: "1 (yes)"
- molecule: "CC(C)Nc1nc(N)nc(Cl)n1"
  class-label: "0 (no)"
- molecule: "CCOC(=O)C1CNC(=O)CC1C(=O)OCC (configuration not stated)"
  class-label: "0 (no)"

Problem: Does Clc1cc(Cl)cc(O[Si]23OCCN(CCO2)CCO3)c1 have a reported logP of at least 2?
Solution: 0 (no)

Problem: Does CCCSc1ccc2[nH]c(NC(=O)OC)nc2c1 have a reported logP of at least 2?
Solution: 1 (yes)

Problem: Does CCC(CO)(CO)CO have a reported logP of at least 2?
Solution: 0 (no)

Problem: Does CCOC(=O)c1ccccc1C(=O)OCC have a reported logP of at least 2?
Solution: 1 (yes)

Problem: Does Clc1cc(Cl)c2[nH]c3c(Cl)cc(Cl)cc3c2c1 have a reported logP of at least 2?
Solution: 1 (yes)

Problem: Does NC(=O)c1ccc(N)nc1 have a reported logP of at least 2?
Solution: 0 (no)

Problem: Does O=C(NCc1ccc(F)cc1)C(=O)c1c[nH]c2ccccc12 have a reported logP of at least 2?
Solution: 1 (yes)

Problem: Does O=[N+]([O-])c1cccc2c1-c1cccc3c([N+](=O)[O-])ccc-2c13 have a reported logP of at least 2?
Solution: 1 (yes)

---

Recorded solubility by entry
Conditions: 20 °C
Report only the number, with the unit mM understood.

Problem: Given Nc1c(Cl)cc([N+](=O)[O-])cc1Cl , state its recorded solubility.
Solution: 0.0338

Problem: Given O=c1c(Cl)c(Cl)cnn1-c1ccccc1 , state its recorded solubility.
Solution: 0.415

Problem: Given CCN(C(=O)n1nnn(-c2ccccc2Cl)c1=O)C1CCCCC1 , state its recorded solubility.
Solution: 0.00658

Problem: Given CCc1ccc(C)nc1 , state its recorded solubility.
Solution: 99

Problem: Given CCCCOCC1CO1 (stereo not drawn) , state its recorded solubility.
Solution: 154

Problem: Given CCOC(C)(C)C , state its recorded solubility.
Solution: 117

Problem: Given C=Cc1ccccn1 , state its recorded solubility.
Solution: 262

---

Conditions: 23.0 °C
property-name: log10 OH rate constant (cm³/molecule/s)
# respond with the number and nothing more

Problem: Given CC1=CC[C@@]23CC1C(C)(C)[C@@H]2CC[C@H]3C , state its recorded log10 OH rate constant (cm³/molecule/s).
Solution: -10.2

---

Settings: 25.0 °C
Recorded log10 OH rate constant (cm³/molecule/s) by entry

- molecule: "c1ccc2c(c1)-c1cccc3cccc-2c13"
  log10 OH rate constant (cm³/molecule/s): -10.3

Problem: Given O=CC(F)(F)Cl , state its recorded log10 OH rate constant (cm³/molecule/s).
Solution: -12.1

Problem: Given FC(F)(F)COCC(F)(F)F , state its recorded log10 OH rate constant (cm³/molecule/s).
Solution: -12.8

Problem: Given CCC(C)Cl (stereo unspecified) , state its recorded log10 OH rate constant (cm³/molecule/s).
Solution: -11.6

Problem: Given C=C1CCC2(C(C)C)CC12 (stereo unspecified) , state its recorded log10 OH rate constant (cm³/molecule/s).
Solution: -9.93

Problem: Given CCBr , state its recorded log10 OH rate constant (cm³/molecule/s).
Solution: -12.5

Problem: Given COCCOC , state its recorded log10 OH rate constant (cm³/molecule/s).
Solution: -10.6

Problem: Given FC(C(F)(F)F)C(F)(F)F , state its recorded log10 OH rate constant (cm³/molecule/s).
Solution: -14.8

Problem: Given Clc1ccc(-c2ccc(Cl)cc2)cc1 , state its recorded log10 OH rate constant (cm³/molecule/s).
Solution: -11.7

Problem: Given FC(F)(F)C(F)(F)C(F)(F)C(F)(F)N(C(F)(F)C(F)(F)C(F)(F)C(F)(F)F)C(F)(F)C(F)(F)C(F)(F)C(F)(F)F , state its recorded log10 OH rate constant (cm³/molecule/s).
Solution: < -16.2

Problem: Given FC(F)=C(F)OC(F)(F)F , state its recorded log10 OH rate constant (cm³/molecule/s).
Solution: -11.4

Problem: Given NCC(F)(F)F , state its recorded log10 OH rate constant (cm³/molecule/s).
Solution: -12

Problem: Given Cc1ccccc1C , state its recorded log10 OH rate constant (cm³/molecule/s).
Solution: -10.9

Problem: Given CC12CCC(CC1)C(C)(C)O2 , state its recorded log10 OH rate constant (cm³/molecule/s).
Solution: -11

Problem: Given C=CCOC(F)(F)C(F)F , state its recorded log10 OH rate constant (cm³/molecule/s).
Solution: -10.7

Problem: Given FC(F)(F)CC(F)(F)F , state its recorded log10 OH rate constant (cm³/molecule/s).
Solution: -15
